B1: CDC25B (parent)
chain: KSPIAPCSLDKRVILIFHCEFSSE

# Variants of: B1
# experimental-protocol: protein stability index of a GFP-peptide fusion (GPS, HEK-293T) (PSI 1-6); higher = more stable;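 note: lentivirally expressed fusions sorted by FACS into six bins by GFP to DsRed ratio, PSI derived from sequencing read proportions per bin multiplied by bin number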
# reported-conditions: c terminus: a fixed tail appended
protein stability index vs 3: at or above is Satisfied, below is Not satisfied.

Input line: Answer whether protein stability index of V13Q is greater than or equal to 3.
Output line: Not satisfied

Input line: Item E24Q with protein stability index of 3 or above?
Output line: Not satisfied

Input line: Kindly determine if protein stability index recorded for C19T is above or exactly 3.
Output line: Satisfied

Input line: State whether the measured protein stability index reaches 3, counting equality as reaching it, for I4G
Output line: Satisfied

Input line: Has C19Q a recorded protein stability index greater than or equal to 3?
Output line: Satisfied

Input line: Item L15T with protein stability index of 3 or above?
Output line: Not satisfied

Input line: hey, is protein stability index for this one >= 3? F21Q
Output line: Not satisfied

Input line: Kindly determine if protein stability index recorded for K11L is above or exactly 3.
Output line: Not satisfied

Input line: Can F17E be said to have protein stability index at or above 3?
Output line: Not satisfied

Input line: Does the reported protein stability index for F17Q fall at or above the 3 mark?
Output line: Not satisfied

Input line: Threshold query (protein stability index >= 3) on S23Q
Output line: Not satisfied

Input line: # bool: protein stability index of I14H >= 3
Output line: Satisfied

Input line: Has K11Q a recorded protein stability index greater than or equal to 3?
Output line: Not satisfied

Input line: Does the variant S2E have recorded protein stability index that is 3 or more?
Output line: Satisfied

Input line: Can A5S be said to have protein stability index at or above 3?
Output line: Not satisfied

Input line: Quick check: does D10S have protein stability index greater than or equal to 3?
Output line: Not satisfied

Input line: Could you verify whether the entry F21A shows protein stability index of no less than 3?
Output line: Not satisfied

Input line: Is protein stability index at least 3? Consider F17C
Output line: Not satisfied

Input line: Quick check, protein stability index >= 3? C7P
Output line: Not satisfied

Input line: Would you say I16Q shows protein stability index at minimum 3?
Output line: Not satisfied

Where do the numbers come from? From the supplement of paper PMC10567573.
